Target: SARM1 (Homo sapiens)
Construct: made in house; host or cells: NRK1-HEK293T cells, transiently transfected; clarified lysate used unpurified
Sequence (Q6SZW1 with tags, fused parts or gaps): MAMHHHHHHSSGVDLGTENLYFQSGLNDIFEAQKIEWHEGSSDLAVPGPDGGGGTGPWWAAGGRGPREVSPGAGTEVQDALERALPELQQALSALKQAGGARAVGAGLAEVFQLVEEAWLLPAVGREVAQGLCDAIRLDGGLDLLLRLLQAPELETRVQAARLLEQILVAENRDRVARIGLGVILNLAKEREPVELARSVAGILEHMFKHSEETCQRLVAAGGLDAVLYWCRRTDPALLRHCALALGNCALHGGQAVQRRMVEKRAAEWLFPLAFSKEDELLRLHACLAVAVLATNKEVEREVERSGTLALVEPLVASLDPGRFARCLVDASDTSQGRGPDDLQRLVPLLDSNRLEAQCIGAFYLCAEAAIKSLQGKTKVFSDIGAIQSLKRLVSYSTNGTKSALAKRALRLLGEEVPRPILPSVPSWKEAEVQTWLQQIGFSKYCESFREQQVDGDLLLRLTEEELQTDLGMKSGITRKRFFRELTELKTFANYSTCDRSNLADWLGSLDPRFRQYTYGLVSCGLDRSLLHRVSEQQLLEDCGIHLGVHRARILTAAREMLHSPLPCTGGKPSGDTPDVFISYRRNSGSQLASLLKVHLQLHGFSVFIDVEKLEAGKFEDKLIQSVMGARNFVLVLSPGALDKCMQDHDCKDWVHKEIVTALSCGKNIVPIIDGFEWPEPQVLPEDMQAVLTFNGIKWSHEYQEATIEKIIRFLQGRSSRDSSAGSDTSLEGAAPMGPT
Assay: ARM-SAM-TIR SARM1 IC50 assay (NADase activity, NAD+ cleavage)
Type: biochemical
Conditions: ARM-SAM-TIR lysate 5 μg/mL from NRK1-HEK293T cells; 2 h pre-incubation; 5 μM NAD+; 2 hr room temperature; NAD+ and ADPR by RapidFire MS; read-out: SARM1 IC50
Catalogue of compounds with associated IC50

Please review the entries below; each comes with its answer.
{"COMPOUND": "CCOc1cncc(NCc2cnccn2)n1", "EXPERIMENTAL RESULT": "> 30 µM"}
{"COMPOUND": "COc1cncc(NCc2ccc(N3CCN(C(=O)OC(C)(C)C)CC3)nc2)n1", "EXPERIMENTAL RESULT": "5 to 15 µM"}
{"COMPOUND": "CC(C)Oc1cncc(NCc2cccnc2)n1", "EXPERIMENTAL RESULT": "> 30 µM"}

Problem: Fill in: IC50 of COC(=O)c1ccc(CNc2cncc(OC)n2)cc1 is ___
Result: 5 to 15 µM

Problem: Fill in: IC50 of COc1cncc(NCc2nccn2C)n1 is ___
Result: > 30 µM

Problem: Fill in: IC50 of COc1cnnc(NCc2cn[nH]c2)c1 is ___
Result: 15 to 30 µM

Problem: Fill in: IC50 of COc1cc(NCc2cc[nH]c(=O)c2)cnn1 is ___
Result: > 30 µM

Problem: Fill in: IC50 of COc1cncc(NCc2cccnc2)c1C is ___
Result: > 30 µM

Problem: Fill in: IC50 of COc1cncc(NCc2ccc(NC(C)=O)cc2)n1 is ___
Result: < 5 µM

Problem: Fill in: IC50 of Cn1cc(CNc2cncc(OCCC3CCCO3)n2)cn1 (centres unmarked) is ___
Result: > 30 µM

Problem: Fill in: IC50 of CCOc1cncc(NCc2ccccc2)n1 is ___
Result: 15 to 30 µM

---

Catalogue of compounds with associated IC50
Target: SARM1 (Homo sapiens)
Construct: made in house; host or cells: NRK1-HEK293T cells, transiently transfected; clarified lysate used unpurified
Sequence (Q6SZW1 with tags, fused parts or gaps): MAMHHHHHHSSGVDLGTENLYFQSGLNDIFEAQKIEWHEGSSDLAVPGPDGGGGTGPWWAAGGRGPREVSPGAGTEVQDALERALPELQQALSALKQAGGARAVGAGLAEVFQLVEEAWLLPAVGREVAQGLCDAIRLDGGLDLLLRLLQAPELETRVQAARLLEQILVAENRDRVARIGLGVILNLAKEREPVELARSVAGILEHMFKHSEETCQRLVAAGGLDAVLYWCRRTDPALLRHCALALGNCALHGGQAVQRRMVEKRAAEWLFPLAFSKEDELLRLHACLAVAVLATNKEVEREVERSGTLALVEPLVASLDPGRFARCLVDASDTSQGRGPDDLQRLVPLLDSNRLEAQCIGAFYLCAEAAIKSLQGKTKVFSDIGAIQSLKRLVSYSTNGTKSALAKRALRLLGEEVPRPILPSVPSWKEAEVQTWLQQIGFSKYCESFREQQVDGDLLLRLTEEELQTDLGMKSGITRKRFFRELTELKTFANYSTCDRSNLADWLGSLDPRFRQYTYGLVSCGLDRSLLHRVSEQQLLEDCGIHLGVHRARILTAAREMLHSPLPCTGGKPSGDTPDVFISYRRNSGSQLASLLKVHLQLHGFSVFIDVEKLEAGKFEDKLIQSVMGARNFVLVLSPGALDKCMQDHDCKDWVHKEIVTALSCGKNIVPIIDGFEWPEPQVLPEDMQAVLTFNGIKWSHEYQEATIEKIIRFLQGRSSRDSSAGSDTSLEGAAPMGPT
Test: ARM-SAM-TIR SARM1 IC50 assay (NADase activity, NAD+ cleavage)
Format: biochemical

Please review the entries below; each comes with its answer.
{"MOL": "COc1cncc(NCc2ccc(Cl)nc2)n1", "IC50": "5 to 15 µM"}
{"MOL": "COc1cncc(NCc2cncnc2)n1", "IC50": "5 to 15 µM"}
{"MOL": "COc1cncc(NCc2ccc(N3CCNCC3)nc2)n1", "IC50": "5 to 15 µM"}

Problem: Fill in: IC50 of COc1cncc(NCc2ccc(C3=CCN(C)CC3)nc2)n1 is ___
Result: 5 to 15 µM

Problem: Fill in: IC50 of CCOc1cncc(NCc2ccc(C)nc2)n1 is ___
Result: 5 to 15 µM

---

target: SARM1 (Homo sapiens, UniProt Q6SZW1); construct: made in house; host or cells: NRK1-HEK293T cells, transiently transfected; clarified lysate used unpurified; test: ARM-SAM-TIR SARM1 IC50 assay (NADase activity, NAD+ cleavage); assay type: biochemical; conditions: ARM-SAM-TIR lysate 5 μg/mL from NRK1-HEK293T cells; 2 h pre-incubation; 5 μM NAD+; 2 hr room temperature; NAD+ and ADPR by RapidFire MS; read-out: SARM1 IC50
Catalogue of compounds with associated IC50

Please review the entries below; each comes with its answer.
{"COMPOUND": "COc1cncc(NCc2cnc(N3CCNCC3C)nc2)n1 (stereo not drawn) [Example 112]", "SYSTEM UNDER TEST": "SARM1 (Homo sapiens, UniProt Q6SZW1)", "EXPERIMENTAL RESULT": "5 to 15 µM"}
{"COMPOUND": "COc1cncc(N)n1 [Example 159]", "SYSTEM UNDER TEST": "SARM1 (Homo sapiens, UniProt Q6SZW1)", "EXPERIMENTAL RESULT": "15 to 30 µM"}
{"COMPOUND": "COc1cc(NC(=O)c2cccnc2)cnn1 [Example 136]", "SYSTEM UNDER TEST": "SARM1 (Homo sapiens, UniProt Q6SZW1)", "EXPERIMENTAL RESULT": "5 to 15 µM"}
{"COMPOUND": "COc1cncc(NCc2cnn(CCN(C)C)c2)n1 [Example 104]", "SYSTEM UNDER TEST": "SARM1 (Homo sapiens, UniProt Q6SZW1)", "EXPERIMENTAL RESULT": "5 to 15 µM"}
{"COMPOUND": "COc1cncc(NCc2ccc(N3CCNC(=O)C3)nc2)n1 [Example 114]", "SYSTEM UNDER TEST": "SARM1 (Homo sapiens, UniProt Q6SZW1)", "EXPERIMENTAL RESULT": "5 to 15 µM"}

# input for lookup
Problem: Test system SARM1 (Homo sapiens, UniProt Q6SZW1); read-out IC50; what value for COc1cncc(NCc2cnc[nH]2)n1 [Example 61] ?
Result: < 5 µM

---

target: SARM1 (Homo sapiens); construct: made in house; host or cells: NRK1-HEK293T cells, transiently transfected; clarified lysate used unpurified; experiment: ARM-SAM-TIR SARM1 IC50 assay (NADase activity, NAD+ cleavage); format: biochemical; conditions: ARM-SAM-TIR lysate 5 μg/mL from NRK1-HEK293T cells; 2 h pre-incubation; 5 μM NAD+; 2 hr room temperature; NAD+ and ADPR by RapidFire MS; read-out: SARM1 IC50
pIC50: −log10 of the molar value.
Catalogue of compounds with associated pIC50

{"COMPOUND": "COc1cncc(NCc2ccc(S(N)(=O)=O)cc2)n1", "pIC50": "> 5.30"}
{"COMPOUND": "COc1cncc(NCc2ccc(C(N)=O)cc2)n1", "pIC50": "4.82 to 5.30"}
{"COMPOUND": "CCOc1cncc(OCc2cccnc2)n1", "pIC50": "< 4.52"}
{"COMPOUND": "COc1cncc(NCc2ccn(C)c(=O)c2)n1", "pIC50": "4.52 to 4.82"}
{"COMPOUND": "COCCn1cc(CNc2cncc(OC)n2)cn1", "pIC50": "4.82 to 5.30"}

# input for lookup
Problem: Fill in: pIC50 of Cc1ncc(Cl)nc1NCc1cccnc1 is ___
Result: < 4.52
